The values you see were collected from patent US20050136444A1.

- TARGET_SYSTEM: NPFF1 (Homo sapiens)
- Sequence (Q9GZQ6 whole entry, species assumed): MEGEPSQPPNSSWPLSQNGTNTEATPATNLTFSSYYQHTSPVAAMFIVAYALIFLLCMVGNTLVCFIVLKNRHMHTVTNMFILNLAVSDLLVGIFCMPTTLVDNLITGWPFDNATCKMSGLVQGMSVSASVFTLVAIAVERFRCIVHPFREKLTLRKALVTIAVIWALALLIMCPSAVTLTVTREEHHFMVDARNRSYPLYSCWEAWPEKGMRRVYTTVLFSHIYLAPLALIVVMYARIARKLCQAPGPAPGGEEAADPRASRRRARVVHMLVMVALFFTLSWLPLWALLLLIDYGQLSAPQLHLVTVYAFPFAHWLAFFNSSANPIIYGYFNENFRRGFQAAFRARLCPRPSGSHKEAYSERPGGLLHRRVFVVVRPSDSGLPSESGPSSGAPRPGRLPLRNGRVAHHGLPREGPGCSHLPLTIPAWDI
- PROTOCOL: Receptor Selection and Amplification Technology (R-SAT) functional assay, NPFF1
- Format: cell-based
- Parameters: expressed in transfected cells; host or cells: NIH3T3
- SETTINGS: R-SAT, Table 1; Efficacy is relative to endogenous ligand; read-out: NPFF1 % Efficacy
Counter-ions that a name gives are not always drawn.

| COMPOUND | Emax [%] |
| --- | --- |
| CCc1ccc(C(C)=NNC(=N)N)cc1 [Compound 3020, Hydrochloride] | 41 |
| N=C(N)NN=Cc1cccc(-c2ccccc2C(F)(F)F)c1 [Compound 2058, Hydrochloride] | 25 |
| N=C(N)NN=Cc1ccc(C(F)(F)F)cc1 [Compound 4002, Hydrochloride] | 20 |
| CCN(CC)c1ccc(C=NNC(=N)N)c(OC)c1 [Compound 3043, Hydrochloride] | 60 |
| Cl.N=C(N)N/N=C/c1ccc(Br)c(Br)c1 [Compound 3093, Hydrochloride] | 11 |
| COc1cccc(C=NNC(=N)N)c1OCc1ccccc1 [Compound 3006, Hydrochloride] | 14 |
| COc1cc(Cl)cc(C=NNC(=N)N)c1OC [Compound 2059, Hydrochloride] | 31 |
| CCC(=NNC(=N)N)c1ccc(Cl)c(Cl)c1 [Compound 2056, Hydrochloride] | 6 |
| Cc1ccc(C=NNC(=N)N)c(C)c1 [Compound 2077, Hydrochloride] | 21 |
| COc1ccc(C=NNC(=N)N)c(OC)c1 [Compound 4003, Hydrochloride] | 41 |
| COc1ccc(C=NNC(=N)N)cc1F [Compound 2009, Hydrochloride] | 9 |
| COc1ccc(C(C)=NNC(=N)N)c(O)c1 (mixture of isomers) [Compound 3030, Hydrochloride] | 7 |
| CC(=NNC(=N)N)c1cccc(C(F)(F)F)c1 [Compound 3027, Hydrochloride] | 5 |
| CCCCCc1ccc(C=NNC(=N)N)cc1 [Compound 3022, Hydrochloride] | 13 |
| N=C(N)NN=Cc1ccc(O)c(Cl)c1 [Compound 2031, Hydrochloride] | 1 |
| COc1ccc(OC)c(C(C)=NNC(=N)N)c1 (mixture of isomers) [Compound 3029, Hydrochloride] | -1 |
| CCN(CC)c1ccc(C=NNC(=N)N)c(O)c1 [Compound 3037, Hydrochloride] | 39 |
| CCOc1ccc(C=NNC(=N)N)cc1 [Compound 4005, Hydrochloride] | 89 |
| Cc1ccc(C=NNC(=N)N)cc1C [Compound 3019, Hydrochloride] | 12 |
| N=C(N)NN=Cc1ccc(Oc2ccccc2)cc1 [Compound 2020, Hydrochloride] | 24 |
| N=C(N)NN=Cc1cccc(C(F)(F)F)c1F [Compound 2065, Hydrochloride] | 9 |
| NC(N)=N/N=C/c1ccc(Cl)c(Cl)c1 [Compound 1045, Hydrochloride] | 17 |
